# assayedTarget: UniProt P9WGR1
# Sequence (P9WGR1 whole entry, looked up): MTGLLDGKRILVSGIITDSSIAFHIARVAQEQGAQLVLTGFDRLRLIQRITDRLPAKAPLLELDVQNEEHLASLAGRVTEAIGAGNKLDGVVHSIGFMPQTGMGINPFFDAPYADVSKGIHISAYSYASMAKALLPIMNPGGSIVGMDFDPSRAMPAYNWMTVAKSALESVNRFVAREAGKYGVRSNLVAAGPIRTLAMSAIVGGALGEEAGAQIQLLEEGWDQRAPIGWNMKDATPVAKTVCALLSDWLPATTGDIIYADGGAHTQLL
propertyLabel: IC50 (µM)
Return type: number; implicit unit µM.

The observed IC50 for CCN(CC)C(=O)/C(C#N)=C/c1cc(O)c(O)c([N+](=O)[O-])c1 [entacapone] when tested with UniProt P9WGR1 stands at 79
